Just for reference, ChEMBL document CHEMBL5365513 is where these values come from.

- protocol-summary: Metabolic stability in human liver microsomes assessed as clearance at 1 uM incubated upto 180 mins by LC/MS-MS analysis
- Type: ADME, Microsome
This section presents compounds with their documented CLhep predicted at 1 µM values.

Please review the following examples before continuing.
>>> print(df.to_string())
                      smiles_representation     result_value
0  C[C@H]1CCCN1C(=O)c1ccc2cnc(NC3CCN(S(N)(=O)=O)CC3)nc2c1  < 3.9 mL/min/kg
1  CNS(=O)(=O)c1ccc(Nc2ncc3ccc(C(=O)N4C[C@@H](O)[C@@H]4C)nc3n2)c(F)c1  < 3.9 mL/min/kg

As a next step, examine the compound that follows.
(Q) State its CLhep predicted at 1 µM: C[C@H]1CCN1C(=O)c1ccc2cnc(NC3CCN(S(C)(=O)=O)CC3)nc2c1
(A) < 3.9 mL/min/kg

====

- protocol-summary: Antiproliferative activity against human OVISE cells assessed as inhibition of cell division incubated for 16 hrs by EdU incorporation assay
- Format: functional, cell-based
Below is a list of entries, each paired with its recorded pIC50 value.
As a rule, pIC50 stands for the negative log10 of the concentration, concentration in M.

Reference set (7 entries):
>>> print(df.to_string())
                      smiles_representation  reported_property  result_value
0  COCc1cc(C(=O)Nc2cc([C@H]3CC[C@@H](OC(=O)NC(C)C)C3)[nH]n2)n(C)n1              pIC50          6.80
1  CNS(=O)(=O)c1ccc(Nc2ncc3ccc(C(=O)N4C[C@@H](C#N)[C@@H]4C)nc3n2)c(F)c1              pIC50          7.28
2  CNS(=O)(=O)c1ccc(Nc2ncc3ccc(C(=O)N4CC[C@@H]4C)nc3n2)c(F)c1              pIC50          7.42
3  CC[C@H](Nc1nc(NCc2cnc(C)cc2C)c2ncn(C(C)C)c2n1)[C@@H](C)O              pIC50          5.96
4  CNS(=O)(=O)c1ccc(Nc2ncc3ccc(C(=O)N4C[C@@H](OC)[C@@H]4C)nc3n2)c(F)c1              pIC50          7.60
5  CNS(=O)(=O)c1ccc(Nc2ncc3ccc(C(=O)N4C[C@@H](F)C[C@@H]4C)nc3n2)c(C)c1              pIC50          6.60
6  CNS(=O)(=O)c1ccc(Nc2ncc3ccc(C(=O)N4C[C@@H](F)C[C@@H]4C)cc3n2)c(C)c1              pIC50          6.89

In the following, a different molecule is considered.
(Q) Specify measured pIC50 for CNS(=O)(=O)c1ccc(Nc2ncc3ccc(C(=O)N4C[C@H](F)C[C@@H]4C)cc3n2)c(C)c1 .
(A) 5.82

====

- protocol-summary: Selectivity ratio of Ki for CDK4/Cyclin D3 (unknown origin) to Ki for CDK2/Cyclin E1 (unknown origin)
Quick list: Ratio Ki per entry.
Format: numeric value only, no unit, no commentary.

Consider the worked cases shown below.
In [3]: df
Out[3]:
                      smiles_representation  reported_property  result_value
0  CNS(=O)(=O)c1ccc(Nc2ncc3ccc(C(=O)N4C[C@H](F)[C@@H]4C)nc3n2)c(F)c1           Ratio Ki            41
1  CNS(=O)(=O)c1ccc(Nc2ncc3ccc(C(=O)N4C[C@@H](F)C[C@@H]4C)nc3n2)c(C)c1           Ratio Ki           270

(Q) Recall and state the measured Ratio Ki for CNS(=O)(=O)c1ccc(Nc2ncc3ccc(C(=O)N4C[C@@H](O)[C@@H]4C)nc3n2)c(F)c1 .
(A) 89
